Source of measurements: ChEMBL document CHEMBL1201862

# System: A549
# procedureSummary: NCI tumour cell line growth inhibition, 48 h
The source made the active and inactive calls. Cut-off read from the data, not from the text of the source: active = GI50 up to about 1.1 µM and inactive = higher.
readout: GI50

Look over these answered cases.
>>> datavalue("OCC1OC(NO)C(O)C(O)C1O (centres undefined)")
"> 100 µM (inactive)"
>>> datavalue("COc1ccc(C(O)/C(=N/N)c2nc3ccc(Cl)cc3nc2O)cc1 (centres undefined)")
"> 100 µM (inactive)"
>>> datavalue("Cc1c(C(=O)CC(=O)C(=O)Nc2ccccc2C(F)(F)F)[n+]([O-])c2ccccc2[n+]1[O-]")
"24.2 µM (inactive)"
>>> datavalue("N#CCCN(CCCN(CCCN(C(=O)Nc1ccccc1)c1ccccc1)C(=O)Nc1ccccc1)C(=O)Nc1ccccc1")
"> 8.75 µM (inactive)"
>>> datavalue("Oc1ccc(CCNCc2cc3c(cc2Br)OCO3)cc1")
"> 100 µM (inactive)"
>>> datavalue("C[N+]1(C)C/C(=C\\C=C\\c2ccccc2)C(=O)/C(=C/C=C/c2ccccc2)C1")
"39.8 µM (inactive)"

State the recorded GI50 for every item in the following list.
1. CCCCCCCCCCCCNC(=S)OCCCC
2. S=c1[nH]nc(Cn2c3ccc(Br)cc3c3nc4ccccc4nc32)o1
3. COc1ccc(N[C@H]([C@@H](c2ccccc2)[S+]([O-])c2ccc(C)cc2)C(F)(F)F)cc1 (some centres undefined)
4. COC(=O)[C@H](Cc1ccccc1)NC(=O)N1CCCN(C(=O)N[C@@H](Cc2ccccc2)C(=O)OC)CCCN(C(=O)N[C@@H](Cc2ccccc2)C(=O)OC)CCC1

## Result
1. > 100 µM (inactive)
2. 22.8 µM (inactive)
3. 32.7 µM (inactive)
4. 27.9 µM (inactive)

# per-item lookup of GI50; items listed below
1. COC(=O)[C@H](Cc1ccccc1)NC(=O)c1ccc(CNC(=O)/C=C/c2ccc(OCc3ccccc3)cc2)cc1
2. Nc1ccc(-c2nnc(-c3c(Cl)c(Cl)c(Cl)c(Cl)c3-c3nc4cc(C(=O)c5ccccc5)ccc4[nH]3)o2)cc1
3. COC(C(O)CO)C(O)C(O)C(=O)NNc1ccccc1 (centres undefined)

## Result
["27 µM (inactive)", "28.1 µM (inactive)", "> 100 µM (inactive)"]

----------
I'd appreciate it if you could supply GI50 values for the items below.
# Tested on: MOLT-4
# procedureSummary: NCI tumour cell line growth inhibition, 48 h
Activity calls are given as the source filed them. No stated cut-off is given here; in the data, active = GI50 up to about 1.1 µM and inactive = higher.

>>> datavalue("c1c2c(cc(-n3nnc4c3CCCCCC4)c1-n1nnc3c1CCCCCC3)CCCCCC2")
"2.57 µM (inactive)"
>>> datavalue("NCCSSCc1ccccc1CSSCCN")
"30.5 µM (inactive)"
>>> datavalue("COC1OC(CBr)C(OC(=O)c2ccccc2)C(O)C1Br (stereo not drawn)")
"> 100 µM (inactive)"
>>> datavalue("COc1ccc(/C=C2/S/C(=N\\c3ccccc3)N(NC(=O)Cc3ccccc3)C2=O)c(OC)c1")
"68.7 µM (inactive)"
>>> datavalue("COc1cccc(C=O)c1C(=O)c1cc(O)ccc1O")
"3.13 µM (inactive)"
>>> datavalue("CSc1ncnc2c1cnn2CCCCO")
"> 100 µM (inactive)"

Would you be so kind as to report GI50 for each listed record?
1. O=C(c1ccccc1)c1ccc2nc3n(c2c1)C(c1c(Cl)cccc1Cl)SC3 (stereo not drawn)
2. Cc1nc2ccncc2[nH]1

## Result
["2.72 µM (inactive)", "> 100 µM (inactive)"]

----------
# Tested on: NCI-H460
# procedureSummary: NCI tumour cell line growth inhibition, 48 h
Active and inactive are the calls of the source. Cut-off read from the data, not from the text of the source: active = GI50 up to about 1.1 µM and inactive = higher.
Answer each item with its documented GI50.

Examples with their reported GI50 follow.
>>> datavalue("O=[N+]([O-])c1cc(C(F)(F)F)ccc1S(=O)(=O)N[C@@H]1CCCC[C@H]1NS(=O)(=O)c1ccc(C(F)(F)F)cc1[N+](=O)[O-]")
"3.57 µM (inactive)"
>>> datavalue("CC1OC(n2cc(I)c(=O)[nH]c2=O)C=CC1=O (configuration not stated)")
"18.8 µM (inactive)"
>>> datavalue("COc1cc2c(c(OC)c1)C(C)=NC(C)C2 (configuration not stated)")
"> 100 µM (inactive)"
>>> datavalue("COP(=O)(OC)c1ccc(NCc2cc(O)ccc2O)cc1")
"22.1 µM (inactive)"

The following molecules each have a reported value; give each one's GI50.
1. COC(=O)C(Cc1nc2ccc(Cl)cc2nc1O)/C(=N/NC(N)=O)C(=O)Nc1ccc(Cl)cc1 (configuration not stated)
2. COC(=O)c1ccc(C)cc1CC1Cc2c(C)cccc2C1=O (configuration not stated)
3. C[N+](C)(C)CC(=O)N/N=C(/Cc1cc(=O)oc2cc(O)ccc12)C(=O)Nc1ccc(Cl)cc1

## Result
["> 100 µM (inactive)", "17.8 µM (inactive)", "> 100 µM (inactive)"]

----------
# System: SF-539
# procedureSummary: NCI tumour cell line growth inhibition, 48 h
Calls of active or inactive are those of the source. No stated cut-off is given here; in the data, active = GI50 up to about 1.1 µM and inactive = higher.
readout: GI50

Please report GI50 for every entry that follows.
1. c1ccc2c(c1)SCCCSCCSCCCS2
2. COc1ccc(C(O)/C(=N/N)c2nc3ccc(Cl)cc3nc2O)cc1 (stereo not drawn)
3. CC1(C)C2CCC(=O)C1CC2 (stereo not drawn)

## Result
1. > 100 µM (inactive)
2. > 100 µM (inactive)
3. > 100 µM (inactive)

----------
# Test system: KM12
# procedureSummary: NCI tumour cell line growth inhibition, 48 h
Calls of active or inactive are those of the source. No stated cut-off is given here; in the data, active = GI50 up to about 1.1 µM and inactive = higher.
readout: GI50

Here is how some compounds turned out for GI50.
>>> datavalue("CC1OC(n2cc(I)c(=O)[nH]c2=O)C=CC1=O (stereo not drawn)")
"13 µM (inactive)"
>>> datavalue("O=C1OC(CC(=O)c2ccc(Cl)cc2)C(Cl)=C1Cl (stereo not drawn)")
"> 100 µM (inactive)"
>>> datavalue("CC(C)(C)N1C(C(=O)c2ccccc2)C1c1ccccc1 (stereo not drawn)")
"> 100 µM (inactive)"
>>> datavalue("C=CC(CCc1ccc(C(=O)OCC)cc1)c1c(N)nc(N)[nH]c1=O (stereo not drawn)")
"> 100 µM (inactive)"
>>> datavalue("Cc1ccc(C(=O)O)c(/C=C2\\Cc3cc(C)cc(C)c3C2=O)c1")
"65.2 µM (inactive)"
>>> datavalue("O=C(CSc1nnc(-c2ccc(/N=C\\c3ccc(Cl)cc3)cc2)o1)Nc1ccccc1Cl")
"> 100 µM (inactive)"

Please give GI50 for each item listed below.
1. Oc1ccc(-c2nc3cc(C(F)(F)F)ccc3s2)cc1
2. CNC(=O)c1ccc(C(=O)NCCCCCN(O)C(=O)CCC(=O)NCCCCCN(O)C(=O)CCC(=O)NCCCCCN(O)C(C)=O)c(O)c1O
3. C#CCOC(=O)c1ccccc1OC(C)=O
4. Cc1cccc(C)c1N1C(=O)C(=O)C(c2nc3ccccc3s2)/C(=N/NC(=O)NN)C1=O (stereo not drawn)
5. Cn1cc[n+](-c2cc(=O)n(C)c(=O)[n-]2)c1
6. c1ccc(CSc2ccccc2CN2CCN(Cc3ccccc3SCc3ccccc3)CCN(Cc3ccccc3SCc3ccccc3)CC2)cc1
7. COC(=O)C(Cc1nc2ccc(Cl)cc2nc1O)/C(=N/NC(N)=O)C(=O)Nc1ccc(Cl)cc1 (stereo not drawn)

## Result
1: 13.1 µM (inactive); 2: 58.5 µM (inactive); 3: > 100 µM (inactive); 4: > 100 µM (inactive); 5: > 100 µM (inactive); 6: 1.58 µM (inactive); 7: > 100 µM (inactive)

Batch request: GI50 for each of the following compounds.
1. CC(=O)C(C)C(=O)N1C(=O)N(C)C2(C)N(C)C(=O)NC12C (stereo not drawn)
2. COc1ccc(/C(=N/NC(N)=O)C2(O)C(=O)Nc3ccc([N+](=O)[O-])cc32)cc1 (stereo not drawn)
3. O=C(O)C(C(=O)C(=O)C(C(=O)O)c1ccc(Cl)cc1)c1ccc(Cl)cc1 (stereo not drawn)

## Result
1: > 100 µM (inactive); 2: 22.6 µM (inactive); 3: 3.75 µM (inactive)

Fill in GI50 for each of the 3 compounds listed.
1. CC(=O)OCC1OC(n2c(C)c(/N=N/c3ccccc3)c(C)c(C#N)c2=S)C(OC(C)=O)C(OC(C)=O)C1OC(C)=O (stereo not drawn)
2. CN/N=C(\C)c1c(O)cc(C)oc1=O
3. CC12OC(=O)[C@@]3(O)CCC4C(C[C@H]5O[C@]56CC=CC(=O)[C@]46C)C45OC[C@H]6C(=O)O[C@@H]1C[C@@]6(C)[C@H](C4=O)C23O5 (stereo partly drawn)

## Result
["> 100 µM (inactive)", "> 100 µM (inactive)", "1.85 µM (inactive)"]

Hi there! I need GI50 for each item below, if you can.
1. Cc1ccc([N+](=O)[O-])cc1S(=O)(=O)Nc1ccc(C2=NN(S(=O)(=O)c3cc([N+](=O)[O-])ccc3C)C(c3ccco3)C2)cc1 (stereo not drawn)
2. COc1cc(-c2cc(O)c(-c3ccc4ccccc4n3)c(O)n2)cc(OC)c1OC
3. Cc1ccc(NC(=O)CC2SC(Nc3ccc(Cl)cc3)=NC2=O)cc1C (stereo not drawn)

## Result
1: 39.4 µM (inactive); 2: 14.8 µM (inactive); 3: 19.9 µM (inactive)

Provide GI50 for all items below, preserving their order.
1. O=C(c1ccc(NCN2C(=O)CCC2=O)cc1)c1ccc(NCN2C(=O)CCC2=O)cc1
2. CCCCCCCCCCCCCP(=O)(OC)OC
3. Cc1ccc([N+](=O)[O-])cc1S(=O)(=O)Nc1ccc(C2=NN(S(=O)(=O)c3cc([N+](=O)[O-])ccc3C)C(c3cccs3)C2)cc1 (stereo not drawn)
4. CCCN/C(N)=N/C#N
5. CCOC(=O)c1ccc(C(=O)/C(C(C)=O)=C2\CCCN2C)n1C

## Result
1. > 100 µM (inactive)
2. 17.5 µM (inactive)
3. 30.1 µM (inactive)
4. > 100 µM (inactive)
5. 29.1 µM (inactive)

For each of the compounds below, state GI50.
1. O=C(O)C1Cc2ccccc2OC1=O (stereo not drawn)
2. Cc1ccc(/C=C/c2n[nH]c(N/N=C/c3ccc4c(c3)OCO4)nc2=O)cc1

## Result
1. > 100 µM (inactive)
2. 17.3 µM (inactive)

Please state, for each entry, its recorded GI50.
1. Cc1cc(=O)n2c3c(c4c(cc13)c(CO)cc(=O)n4C)OC2
2. CC(C)=CC[C@H]1C[C@]2(CC=C(C)C)C(=O)[C@@](CC=C(C)C)(C(=O)C(C(=O)c3ccccc3)=C2O)C1(C)C [6-EPI-CLUSIANONE]

## Result
1. 7.94 µM (inactive)
2. 3.88 µM (inactive)

Provide each entry's GI50 from the list below.
1. CC(C)=NN/C(=N\c1ccc(Cl)cc1)NS(=O)(=O)c1cc2ccccc2s1
2. Clc1ccc(C(c2ccc(Cl)cc2)c2ccccn2)cc1
3. Cc1nc(C(N)=S)sc1C(=O)CC(=O)C(=O)Nc1ccccc1[N+](=O)[O-]
4. O=C1Oc2ccccc2C(=O)/C1=C\Nc1nc(-c2ccccc2)cs1
5. CCN(CC)c1ccc2cc3ccc(N(CC)CC)cc3[o+]c2c1
6. Cc1nc2c(sc(=S)n2-c2ccccc2)c(=O)[nH]1

## Result
["90.4 µM (inactive)", "19.1 µM (inactive)", "> 100 µM (inactive)", "16.7 µM (inactive)", "0.51 µM (active)", "> 100 µM (inactive)"]

## Task Entry COc1ccc(C(=O)/C=C/c2cc(O)c(O)cc2F)c(OC)c1 : reported GI50 = ?
## Result 5.16 µM (inactive)
